Could you please report measured GI50 for the items listed next?
test system: RXF 393; assay: NCI tumour cell line growth inhibition, 48 h
Calls of active or inactive are those of the source. Cut-off read from the data, not from the text of the source: active = GI50 up to about 1.1 µM and inactive = higher.

Use these answered entries as a reference point.
MOLECULE: COC(=O)c1ccc(C)cc1C1CN=NC12Cc1cc(C)ccc1C2=O (stereo unspecified)
GI50: 13.8 µM (inactive)
//
MOLECULE: CC12CCC(CC(=O)/C1=C(/Br)I)C2(C)C (stereo unspecified)
GI50: 4.6 µM (inactive)
//
MOLECULE: O=[N+]([O-])c1ccc(CN(CCCl)OCCCl)cc1
GI50: > 100 µM (inactive)
//
MOLECULE: Cc1cc(N(CCC#N)CCC#N)ccc1/C=C1N=C(/C=C/c2ccccc2)OC(=O)N\1
GI50: 91.8 µM (inactive)
//
MOLECULE: CS/C(=N\Nc1cnc2ccccc2n1)NS(=O)(=O)c1cc(C)c(Cl)cc1Cl
GI50: > 100 µM (inactive)

Query molecule follows.
Given the molecule COc1ccc(OC)c2c3c(ccc12)C(c1ccccc1)OC3=O (stereo unspecified) , what is its reported GI50?
39.9 µM (inactive)

====

tested on: MDA-MB-231; assay: NCI tumour cell line growth inhibition, 48 h
Active and inactive are the calls of the source. Cut-off read from the data, not from the text of the source: active = GI50 up to about 1.1 µM and inactive = higher. Where a SMILES comes first, the peptide text is derived from it. [ ]: non-standard residue; d: D form. The star is where a group is joined. ξ: configuration not given here. NMeF = CN[C@@H](Cc1ccccc1)C(=O)O; NMeV = CN[C@H](C(=O)O)C(C)C; ξNMeN = CNC(CC(N)=O)C(=O)O; NMeA = CN[C@@H](C)C(=O)O; ξNMeV = CNC(C(=O)O)C(C)C; Boc = CC(C)(C)OC(=O)*
RECORDED_ENDPOINT: GI50

MOLECULE: COC(=O)[C@H](C)N(C)C(=O)C(CC(N)=O)N(C)C(=O)[C@H](Cc1ccccc1)N(C)C(=O)[C@@H]1CCCN1C(=O)[C@H](C(C)C)N(C)C(=O)C(C(C)C)N(C)C(=O)[C@@H](NC(=O)OC(C)(C)C)C(C)C (some centres undefined) (Boc-V[ξNMeV][NMeV]P[NMeF][ξNMeN][NMeA]-OMe)
GI50: > 50 µM (inactive)

Please give GI50 for each item listed below.
1. Cc1cc2nc3[nH]nc(N)c3nc2cc1C
2. O=C(NC/C(Cl)=C/Cl)Nc1cccc2c1CCCC2
3. O=C(O)C(O)C(O)C(O)C(O)c1nc2ccccc2s1 (centres undefined)
4. O=C(NCCC1([N+](=O)[O-])CCN(C(=O)c2ccccc2)CC1)c1ccccc1
5. Cc1cccc2c1NC(=O)/C2=N\Nc1ccccc1[N+](=O)[O-]

> 100 µM (inactive)
> 100 µM (inactive)
16.6 µM (inactive)
> 100 µM (inactive)
2.58 µM (inactive)

Please give GI50 for each item listed below.
1. OC1(c2ccc(Cl)cc2)C(N2CCCC2)c2ccccc2C2=NCCN21 (centres undefined)
2. CCOC(=O)C(CC(C)C)NC(=O)CSc1nnc(COc2ccc(Cl)cc2)n1-c1ccccc1 (centres undefined)

24.3 µM (inactive)
16.9 µM (inactive)

Given the molecule CCC1C(c2ccccc2O)c2cc3c(cc2OC1N1CCOCC1)OCO3 (centres undefined) , what is its reported GI50?
16.8 µM (inactive)

====

test system: DU-145; assay: NCI tumour cell line growth inhibition, 48 h
Calls of active or inactive are those of the source. Cut-off read from the data, not from the text of the source: active = GI50 up to about 1.1 µM and inactive = higher.
Write down the outcome that applies. Available outcomes: active, inactive

MOLECULE: S=C(N/N=C/c1ccccn1)Nc1ccc(Cl)cc1
ASSAY_SYSTEM: DU-145
CLASS_LABEL: active

Assay outcome for Cc1cc(N(CCC#N)CCC#N)ccc1/C=N/NC(=O)c1cc(Cl)ccc1O : what was it?
inactive

Assay outcome for CCN(CC)Cc1ccc2cccnc2c1O : what was it?
inactive

Assay outcome for COc1ccccc1NC(=O)C(=O)Cc1cnc2ccccc2n1 : what was it?
inactive

Assay outcome for CN1C(=O)N/C(=C\c2ccc(S(=O)(=O)N/N=C/c3ccccc3)cc2)C1=O : what was it?
inactive

Assay outcome for COC(=O)c1ccc(C)cc1C1CN=NC12Cc1cc(C)ccc1C2=O (stereo not given) : what was it?
inactive

Assay outcome for COc1cc2cc(C(=O)N3CC(CCl)c4ccccc43)[nH]c2c(OC)c1OC (stereo not given) : what was it?
inactive

====

test system: OVCAR-3; experiment: NCI tumour cell line growth inhibition, 48 h
The source made the active and inactive calls. No stated cut-off is given here; in the data, active = GI50 up to about 1.1 µM and inactive = higher.
Could you please report measured GI50 for the items listed next?

Use these answered entries as a reference point.
COMPOUND: CCCCCCCCCCCCCCCCCCNC(=S)N/C=C1\C(=O)Nc2ccccc2C1=O
ASSAY_SYSTEM: OVCAR-3
GI50: 18.5 µM (inactive)
--
COMPOUND: Cn1ccc(C(=O)NCCN(CCNC(=O)c2ccn(C)c(=O)c2O)CCNC(=O)c2ccn(C)c(=O)c2O)c(O)c1=O
ASSAY_SYSTEM: OVCAR-3
GI50: > 100 µM (inactive)
--
COMPOUND: O=C(O)c1cc(Cl)cc2c1NC1(N2)C(=O)Nc2ccccc21 (stereo not given)
ASSAY_SYSTEM: OVCAR-3
GI50: > 100 µM (inactive)
--
COMPOUND: COc1cc2ccc3c4cc(OC)c(OC(C)C)cc4cnc3c2cc1OC
ASSAY_SYSTEM: OVCAR-3
GI50: > 100 µM (inactive)

Query compound follows.
Given the compound CCCC(=O)NC(NC1CCCCC1)(C(=O)OCC)C(F)(F)F (stereo not given) , what is its reported GI50?
> 100 µM (inactive)

====

test system: T47D; assay: NCI tumour cell line growth inhibition, 48 h
Active and inactive are the calls of the source. Cut-off read from the data, not from the text of the source: active = GI50 up to about 1.1 µM and inactive = higher.
Write down the outcome that applies. Available outcomes: 1 for active, -1 for inactive

Below are worked cases with known answers.
COMPOUND: O=CN1CCN(C(=O)c2ccc(Cl)cc2)C1=S
ASSAY_SYSTEM: T47D
CLASS_LABEL: -1

COMPOUND: O=[N+]([O-])c1ccc(SN=S=NSc2cccc(SN=S=NSc3ccc([N+](=O)[O-])cc3)c2)cc1
ASSAY_SYSTEM: T47D
CLASS_LABEL: -1

COMPOUND: CO[C@@]12C[C@H](CNC(=O)c3ccc[nH]3)O[C@@H]1NC(=O)N2
ASSAY_SYSTEM: T47D
CLASS_LABEL: -1

Assay outcome for Cc1ccc(C(C)C)c(OCC(=O)N/N=C/c2c[nH]c3ccc(Br)cc23)c1 : what was it?
-1

Assay outcome for O=C1/C(=C/c2ccc(O)c(O)c2)CCC/C1=C\c1ccc(O)c(O)c1 : what was it?
-1

Assay outcome for COc1cccc2c1C(=O)c1c(O)c3c(c(O)c1C2=O)C[C@@](O)(C(C)=O)C[C@@H]3OC1CC(N(Cc2ccccc2)Cc2ccccc2)C(O)C(C)O1 (stereo not given in full) : what was it?
-1

Assay outcome for O=C(NNc1cn[nH]c(=O)n1)c1cccc2nc3ccccc3nc12 : what was it?
-1

Assay outcome for COC(OC)C1OC(CO)C(n2ccc(N)nc2=O)C1O (stereo not given) : what was it?
-1

Assay outcome for COC(=O)c1c2n(c3ccccc13)C[C@H]1OC(C)(C)O[C@@H]21 : what was it?
-1

Assay outcome for Cn1c(=O)c2[nH]c(CCC(=O)O)nc2n(C)c1=O : what was it?
-1

Assay outcome for C=CCn1c(N)c(C#N)c(C#N)c1CCC : what was it?
-1

Assay outcome for Cc1cc(-c2nc3ccc(F)cc3s2)ccc1NC(=O)[C@H](C)N : what was it?
1

Assay outcome for COc1cc2cc(C(=O)N3CC(CCl)c4c3cc([N+](C)(C)Cc3ccc([N+](=O)[O-])n3C)c3ccccc43)[nH]c2c(OC)c1OC (stereo not given) : what was it?
-1

====

system: HT-29; assay: NCI tumour cell line growth inhibition, 48 h
Calls of active or inactive are those of the source. No stated cut-off is given here; in the data, active = GI50 up to about 1.1 µM and inactive = higher.
Write down the outcome that applies. Available outcomes: active, inactive

Assay outcome for CCOc1ccc(/N=C(/NC(=O)c2ccccc2)SC)cc1 : what was it?
inactive

Assay outcome for C=C=C(C)C(=O)N(C(C)C)C(C)C : what was it?
inactive

Assay outcome for CC(C)=CCc1c(OC(=O)c2c(C)cc(O)cc2O)cc(CO)c(CO)c1O : what was it?
inactive

Assay outcome for Cc1cn2c(/C=N/NC(=N)N)c(-c3cccc([N+](=O)[O-])c3)nc2s1 : what was it?
active

Assay outcome for O=C(O)C(=Cc1ccc(-c2ccc([N+](=O)[O-])cc2)o1)C(=O)O : what was it?
inactive

Assay outcome for OCC(O)COCn1nncc1Cn1ncc2c(SCc3ccccc3)ncnc21 (stereo unspecified) : what was it?
inactive

====

tested on: Malme-3M; experiment: NCI tumour cell line growth inhibition, 48 h
The source made the active and inactive calls. No stated cut-off is given here; in the data, active = GI50 up to about 1.1 µM and inactive = higher.
Could you please report measured GI50 for the items listed next?

COMPOUND: COc1cc(C2c3cc4c(cc3OC(N3CCCCC3)C2C)OCO4)cc(OC)c1OC (centres undefined)
ASSAY_SYSTEM: Malme-3M
OBSERVED_RESULT: 5.83 µM (inactive)

Please give GI50 for each item listed below.
1. CO[C@@]12CC(=O)/C(=C(O)\C=C\c3ccccc3)C(=O)[C@]1(OC)Cc1ccccc1O2
2. CCC12C=CCN3CCC4(C(=C(C(=O)OC)C1)Nc1ccccc14)[C@H]32 (some centres undefined)

91 µM (inactive)
42.4 µM (inactive)
